Molecular target: human CD127 ECD (human) (UniProt P16871)
Test: SPR, BIAcore 3000; antibody captured on anti-human IgG (Fc), CD127 ECD 16-512 nM as analyte, 1:1 Langmuir fit

binder	kon, M⁻¹ s⁻¹
6A3 H4-61_9L27 (antibody, V domains shown) VH: QVQLQESGPGLVKPSETLSLTCTVSGYSVTTDYAWNWIRQPPGKGLEWMGYIFYSGSTTYTPSLKSRITISRDTSKNQFSLKLSSVTAADTAVYYCARGGYDVNYFDYWGQGTTVTVSS VL: DIQMLQSPSSLSASVGDRVTITCLASQTIGYWLAWYQQKPGKAPKLLIYAATRLADGVPSRFSGSGSGTMFTLTISSLQPEDFATYYCQQFFSYPWTFGGGTKVEIK	69900
6A3 H4-61_8L27 (antibody, V domains shown) VH: QVQLQESGPGLVKPSETLSLTCTVSGYSVTTDYAWNWIRQPPGKGLEWIGYIFYSGSTTYTPSLKSRITISRDTSKNQFSLKLSSVTAADTAVYYCARGGYDVNYFDYWGQGTTVTVSS VL: DIQMLQSPSSLSASVGDRVTITCLASQTIGYWLAWYQQKPGKAPKLLIYAATRLADGVPSRFSGSGSGTMFTLTISSLQPEDFATYYCQQFFSYPWTFGGGTKVEIK	24300
6A3 H4-61_6L27 (antibody, V domains shown) VH: QVQLQESGPGLVKPSETLSLTCTVSGYSVSTDYAWNWIRQPPGKGLEWIGYIFYSGSTTYTPSLKSRVTISRDTSKNQFSLKLSSVTAADTAVYYCARGGYDVNYFDYWGQGTTVTVSS VL: DIQMLQSPSSLSASVGDRVTITCLASQTIGYWLAWYQQKPGKAPKLLIYAATRLADGVPSRFSGSGSGTMFTLTISSLQPEDFATYYCQQFFSYPWTFGGGTKVEIK	16000
1A11 H3L5 (antibody, V domains shown) VH: QVQLVQSGAEVKKPGASVKVSCKASGYTFTGYTMNWVRQAPGQGLEWMGLINPYNGVTSYNQKFKGRVTLTRDTSISTAYMELSRLRSDDTAVYYCARGDGNYWYFDVWGQGTTVTVSS VL: EIVLTQSPATLSLSPGERATLSCSASSSVTYMHWYQQKPGQAPRPWIYEISKLASGIPARFSGSGSGTDYTLTISSLEPEDFAVYYCQEWNYPYTFGGGTKVEIK	29400
